src = the RNAGym collection of RNA variant scans (doi:10.7554/elife.90254)

I'd be grateful if you could share measured self-cleavage for these entries.
B1: LINE1-full (parent)
chain: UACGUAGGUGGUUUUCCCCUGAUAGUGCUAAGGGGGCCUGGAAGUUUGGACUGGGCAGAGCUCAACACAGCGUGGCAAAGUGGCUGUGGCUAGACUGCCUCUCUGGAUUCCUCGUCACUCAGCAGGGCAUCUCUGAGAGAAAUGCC

variants of: B1; experiment: self-cleavage, relative activity (ratio to wild type); higher = more cleavage; in vitro, sequencing; the parent is a self-cleaving ribozyme
Reply: number alone, nothing else.

Inquiry: Please look up its self-cleavage: U9C A129U
Reply text: 1.27

Inquiry: Would you mind doing U102C U143G as well?
Reply text: 1.59

Inquiry: Would you mind doing U115G A121G as well?
Reply text: 1.62

Inquiry: Would you mind doing G74A U108C as well?
Reply text: 1.48

Inquiry: Would you mind doing U81A A124U as well?
Reply text: 1.78

Inquiry: Would you mind doing G70A U100A as well?
Reply text: 0.05

Inquiry: Would you mind doing C28U as well?
Reply text: 1.08

Inquiry: Would you mind doing G32A A57U as well?
Reply text: 0.16

Inquiry: Would you mind doing A78G U134G as well?
Reply text: 1.07

Inquiry: Would you mind doing U1C U112C as well?
Reply text: 2.17

Inquiry: Would you mind doing A50G U130C as well?
Reply text: 1.05

Inquiry: Would you mind doing U14A G36U as well?
Reply text: 1.12

Inquiry: Would you mind doing A50U U52A as well?
Reply text: 1.17

Inquiry: Would you mind doing G4A U73A as well?
Reply text: 0.97

Inquiry: Would you mind doing U23C U108C as well?
Reply text: 1.38

Inquiry: Would you mind doing G44U A64G as well?
Reply text: 0.12

Inquiry: Would you mind doing A59U U115A as well?
Reply text: 0.8

Inquiry: Would you mind doing U29C G41U as well?
Reply text: 0.65

Inquiry: Would you mind doing A22G A59C as well?
Reply text: 1.31

Inquiry: Would you mind doing U46C G97A as well?
Reply text: 0.23

Inquiry: Would you mind doing C28U A142G as well?
Reply text: 0.79

Inquiry: Would you mind doing U39A A140U as well?
Reply text: 1.23
